Recorded values, source the supplement of paper PMC10567573.

B1: CHMP4C (parent)
chain: SSKSRAAPSPQEALVRLRETEEML

- Variants of: B1
- ASSAY_DETAILS: protein stability index of a GFP-peptide fusion (GPS, HEK-293T) (PSI 1-6); higher = more stable;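 note: lentivirally expressed fusions sorted by FACS into six bins by GFP to DsRed ratio, PSI derived from sequencing read proportions per bin multiplied by bin number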
- ASSAY_SETUP: c terminus: a fixed tail appended
MEASUREMENT_TYPE: protein stability index

Requested read-out: protein stability index. Entry: SSKSRAAPSPQEALVRFRETEEML [L17F]
4.28

Next up: SSKSRAAPSRQEALVRLRETEEML [P10R]
4.01

Next up: SSKSRAAPSPQEALVRLRETEPML [E22P]
4.66

Next up: SSKSRAAPSPQEALVRARETEEML [L17A]
4.71

Next up: SSKSRAAPSPQEALQRLRETEEML [V15Q]
3.07

Next up: SSKSRAAPSPQEADVRLRETEEML [L14D]
4.96

Next up: SSKSRKAPSPQEALVRLRETEEML [A6K]
1.8

Next up: NSKSRAAPSPQEALVRLRETEEML [S1N]
2.38

Next up: SSKSRAVPSPQEALVRLRETEEML [A7V]
2.56

Next up: SSKSRAANSPQEALVRLRETEEML [P8N]
2.54

Next up: SEKSRAAPSPQEALVRLRETEEML [S2E]
1.86

Next up: SSKSRAAPSPQEALVRLRETFEML [E21F]
3.21

Next up: SSKSRAAPSPPEALVRLRETEEML [Q11P]
3.7

Next up: SSASRAAPSPQEALVRLRETEEML [K3A]
1.97

Next up: SSKSTAAPSPQEALVRLRETEEML [R5T]
2.17

Next up: SSKSRAAPSPQEATVRLRETEEML [L14T]
4.6

Next up: SSKSRAAPSPQEAAVRLRETEEML [L14A]
3.39

Next up: SSKSRAAPSPAEALVRLRETEEML [Q11A]
2.68

Next up: SSKSRAAPSPQEALVRLRETEEFL [M23F]
2.24

Next up: SSKSRAAPSPQEALVRLRETEEQL [M23Q]
2.38

Next up: SSKSRAAPSPQEALVRLEETEEML [R18E]
4.89

Next up: SSKSRAAPSPQEALVRLRETSEML [E21S]
4.09

Next up: SSKSRAAPSPQEALVRLRETEEAL [M23A]
2.07

Next up: SSKSRAAPSPQEALVRLRETEEHL [M23H]
4.34

Next up: SSKSRAAPSPQEHLVRLRETEEML [A13H]
3.99

Next up: SSKSRAAPSPQEALVRERETEEML [L17E]
5.68

Next up: SSKSRAALSPQEALVRLRETEEML [P8L]
2.46
